experiment: Pharmacokinetic (PK) analysis in rats; type: in vivo, Sprague Dawley (SD) rats; settings: Sprague-Dawley, rat, po; SD rats, single intragastric administration, 5 mg/kg, plasma; read-out: Area Under Curve AUC0-∞
QUANTITY: AUC(0-inf) (ng·h/mL)
The reply should be a number in ng·h/mL, with the unit left off.

{"columns": ["STRUCTURE_AS_SMILES", "UNIT", "QUANTITATIVE_READOUT"],
 "data": [
  ["COCCNc1cc(NC(=O)N2CCCc3cc(CN(C)C(=O)[C@H]4CCCN4C)c(C=O)nc32)ncc1C#N", "ng·h/mL", 4800]
]}

Give recorded AUC(0-inf). `COCCSc1cc(NC(=O)N2CCCc3cc(CN(C)C(=O)[C@H]4CCCO4)c(C=O)nc32)ncc1C#N`
8370

====

compounds and their reported AUC(0-inf)
assay: Pharmacokinetic (PK) analysis in rats; format: in vivo, Sprague Dawley (SD) rats; conditions: Sprague-Dawley, rat, po; SD rats, single intragastric administration, 5 mg/kg, plasma; read-out: Area Under Curve AUC0-∞
Write the figure, then the unit, nothing else.

{"columns": ["COMPOUND", "QUANTITY", "RESULT"],
 "data": [
  ["CN(Cc1cc2c(nc1C=O)N(C(=O)Nc1cc(N[C@H]3CCOC3)c(C#N)cn1)CCC2)C(=O)[C@H]1CCCO1", "AUC(0-inf)", "12400 ng·h/mL"],
  ["CO[C@@H]1CCN(Cc2cc3c(nc2C=O)N(C(=O)Nc2cc(N[C@@H]4CCOC4)c(C#N)cn2)CCC3)C1=O", "AUC(0-inf)", "14700 ng·h/mL"]
]}

Let us examine a further case.
Indicate the recorded AUC(0-inf) value for this compound: COCCNc1cc(NC(=O)N2CCCc3cc(CN4CCC(OC)C4=O)c(C=O)nc32)ncc1C#N (stereo not drawn)
9820 ng·h/mL

====

assay: Pharmacokinetic (PK) analysis in rats; type: in vivo, Sprague Dawley (SD) rats; settings: Sprague-Dawley, rat, po; SD rats, single intragastric administration, 5 mg/kg, plasma; read-out: Area Under Curve AUC0-∞
AUC(0-inf) values by entry
Number only, in ng·h/mL; omit the unit.

Completed entries (count: 8):
{"columns": ["COMPOUND", "QUANTITATIVE_READOUT"],
 "data": [
  ["COCCNc1cc(NC(=O)N2CCCc3cc(CN(C)C(=O)C4COC4)c(C=O)nc32)ncc1C#N", 6660],
  ["COCCNc1cc(NC(=O)N2CCCc3cc(CN4CC[C@@H](OC)C4=O)c(C=O)nc32)ncc1C#N", 12300],
  ["CO[C@H]1CCN(Cc2cc3c(nc2C=O)N(C(=O)Nc2cc(N[C@H]4CCOC4)c(C#N)cn2)CCC3)C1=O", 8950],
  ["COCCNc1cc(NC(=O)N2CCCc3cc(CN(C)C(=O)C4CCOC4)c(C=O)nc32)ncc1C#N (centres unmarked)", 13400],
  ["CO[C@H]1CCN(Cc2cc3c(nc2C=O)N(C(=O)Nc2cc(N[C@@H]4COC[C@H]4OC)c(C#N)cn2)CCC3)C1=O", 6900],
  ["COCCNc1cc(NC(=O)N2CCCc3cc(CN(C)C(=O)[C@H]4CCCN4C(C)=O)c(C=O)nc32)ncc1C#N", 5340],
  ["CO[C@@H]1CCN(c2cc(NC(=O)N3CCCc4cc(CN5CC[C@H](OC)C5=O)c(C=O)nc43)ncc2C#N)C1", 7870],
  ["COCCNc1cc(NC(=O)N2CCCc3cc(CN(C)C(=O)[C@@H]4CCCO4)c(C=O)nc32)ncc1C#N", 5900]
]}

Identify measured AUC(0-inf) corresponding to `CO[C@H]1CCN(Cc2cc3c(nc2C=O)N(C(=O)Nc2cc(N[C@@H]4CCOC4)c(C#N)cn2)CCC3)C1=O`
7370

Name the recorded AUC(0-inf) of the item `COCC(=O)N(C)Cc1cc2c(nc1C=O)N(C(=O)Nc1cc(N3CC[C@@H](OC)C3)c(C#N)cn1)CCC2` in your answer.
2670

Quick one: give measured AUC(0-inf) for `COCCNc1cc(NC(=O)N2CCCc3cc(CN4CC[C@H](OC)C4=O)c(C=O)nc32)ncc1C#N`
11300

Identify measured AUC(0-inf) associated with `COC[C@@H](C)Oc1cc(NC(=O)N2CCCc3cc(CN4CC[C@H](OC)C4=O)c(C=O)nc32)ncc1C#N`
9240

Tell me its AUC(0-inf) given `COC[C@@H](C)Nc1cc(NC(=O)N2CCCc3cc(CN4CC[C@H](OC)C4=O)c(C=O)nc32)ncc1C#N` as the entry.
3130

Query AUC(0-inf) for `COC[C@@H](C)Oc1cc(NC(=O)N2CCCc3cc(CN(C)C(=O)[C@H]4CCCO4)c(C=O)nc32)ncc1C#N`
7970
